Test system: Staphylococcus aureus
Test: Antibacterial activity against ciprofloxacin-resistant Staphylococcus aureus MB 5786 (R35)
Type: functional
recorded_metric: MIC (µg/mL)
Expressed in µg/mL, but write only the number.

Please give the documented MIC of C=C1CC[C@@H](O[C@H]2C[C@@](O)([C@H](C)NC(=O)c3[nH]c(C)c(Cl)c3Cl)[C@H](O)[C@@H](C)O2)[C@@H]2C=C[C@H](C)C(/C(O)=C3\C(=O)[C@H](C(C)C)N([C@H]4O[C@H](C)[C@H](OC(N)=O)[C@H](OC(C)=O)[C@@H]4OC)C3=O)[C@@H]12 (stereo partly specified)
0.5

----------
Tested on: Staphylococcus aureus
Assay: Antibacterial activity against coumermycin A1-resistant Staphylococcus aureus MB 5957/H7 harboring GyrB Gln136Glu, Ile175Thr, Leu455Ile mutant
Type: functional
// reported MIC for each item listed
Respond numerically; units are µg/mL and should not be typed.

C=C1CC[C@@H](O[C@H]2C[C@@](O)([C@H](C)NC(=O)c3[nH]c(C)c(Cl)c3Cl)[C@H](O)[C@@H](C)O2)[C@@H]2C=C[C@H](C)C(/C(O)=C3\C(=O)[C@H](C(C)C)N([C@H]4O[C@H](C)[C@H](OC(N)=O)[C@H](OC(C)=O)[C@@H]4OC)C3=O)[C@@H]12 (stereo partly drawn): 4

Now consider the entry below.
Using the record for C=C1CC[C@@H](O[C@H]2C[C@@](O)([C@H](C)NC(=O)c3[nH]c(C)c(Cl)c3Cl)[C@H](OC(C)=O)[C@@H](C)O2)[C@@H]2C=C[C@H](C)C(/C(O)=C3\C(=O)[C@H](C(C)C)N([C@H]4O[C@H](C)[C@H](OC(N)=O)[C@H](OC(C)=O)[C@@H]4OC)C3=O)[C@@H]12 (stereo partly drawn) , state its measured MIC.
16
